# protocol-description: yeast display, Sf9 membrane polyspecificity reagent, FACS + sequencing; frameworks hold sequencing errors
test-readout: polyreactivity (PSR sort gate)

sequence_string=QVQHVESGGGLVQAGGSLRLSCAASGSIFNRNAMGWYRQAPGKERELVAAITRRGGSTYYADSVKVRFTISRDNAMNTVYLQMNSLKPEDTAVYYCAAATRKTEYDYWGQGSQVTVSS result="high polyreactivity"
sequence_string=QVQLVESGGGIVQAGGSLRLAVLPPDLPSTLNDMGWSTQAPGKERELVAAITRGGSTNSADSVKGRFTISRDNAKNTVYLQMNILKPEDTAVYYCDKDSLVDHVGGYDYWGQATQVTVSS result="low polyreactivity"
sequence_string=QVQLVESGGGLVQAGGSLRLSCAASGSIFFFNAMGWYRQAPGKEREFVAAITSSSGRTYYADSVKGRFTISRDNAKNTVYLQMNSLKPEDTAVYYCAAEGLDEGDYWGQGTQVTVSS result="low polyreactivity"
sequence_string=QVQLVETGGGLVQAGGSLRLSCAAYGFTFEYNAMGWYRQAPGKERELVAAITTTGSTYYADSVKGRFTISRDNAKNTVYLQMNSLKPEDTAVYYCAADPVWRGYSYQFDYWGQGTQVTVSS result="low polyreactivity"
sequence_string=QVQLVESGGGLVQAGGSLRLSCAASGRTYWHNTMGWYRQAPGKERELVAAINGGGGSTYYADSVKGRFTISRDNAKNTVYLQMNSLKPEDTAVYYCSARQGVVKGGRGYGYWGQGTQVTVSS result="high polyreactivity"

----------
# protocol-description: yeast display, Sf9 membrane polyspecificity reagent, FACS + sequencing; frameworks hold sequencing errors
test-readout: polyreactivity (PSR sort gate)

sequence_string=QVQLVESGVCLVQAGGSLRLSCAATGSIFEYNAMGWYRQAHGKERELVAAITRGGNTYYADSVKGLFTISRDNAKNTVYLQMNSLKPEDTAVYYCAAVEWYGYPYYYWGQGTQVTVSS result="low polyreactivity"
sequence_string=QVQLQESGGGLVKAGGSLRLSCAASGNISPSDAMGWYRQAPGEERDLVASNAYSAITYYADGVKGRYTISRDNAKNTVYLQMNSLKPEDTEVYYCAVYQFTYPVFPAYWGQGTQVTVSS result="low polyreactivity"
sequence_string=QVQLEESGGGLVQAGGSLRLSFAAYGRTFGTNPMGWYRQATGKERELVAAITKSSSRTYYADSVKGRFTISRDNAKNTVYLQMNSLKPEDTAVYYCAARYYAVGGYDYWGQGTQVTVSS result="high polyreactivity"
sequence_string=QVQLVESGGGLVQAGGSLRLSCAASGSTFQNNPMGSYRQAPGKERELVATISRRGGSTYYADSVKGRFTISRDNAKNTVYLQMNRLKPEDTAVYYCAAQAPNYAHRYYYWGQGTQVTVSS result="high polyreactivity"
sequence_string=QVQLVESGGGLVQAGGSLRLSCAASGFIFGRYAMGWYRQAPGKERELVAAISRGGGSTRYADSVKGRFTISRDNAKNTVYLQMKSLKPEDTAVYYCAAYRYWGRTSYSYDYWGQGTQVTVSS result="high polyreactivity"
sequence_string=QVQLVESGGGLVQAGGSLRLSCAASGSIFVSNAMGWYRQAPGKERELVAAITARDFSTYYADSVKGRFTISRDNAKNTVYLEMNSQKPEDTAVYYCAGNSSTYPSDDSYDYWGQGTQVTVSS result="low polyreactivity"
sequence_string=QVQLVESGGGLVQAGGSLRLSCAASGSTFDGYAMGWYRQAPGKERELVAAISYSGSSTYYADSVKGRFTISGDNAKNTVYLQMNSLKPEDTAVVYCAVDDTHPFGPDGGGDYWGQGTQVTVSS result="low polyreactivity"
sequence_string=QVQLVESGGGLVQAGGSLRLSCAASGSILIYNAMGWYRQARGKERELVAAISTSGGSTYYADSVKGRFTISRDTAKNTVYLQMNSLKPEDTAVYYCAARAYPYGYWGQGTQVTVSS result="low polyreactivity"
sequence_string=QVQLVESGGGLVQAGGSLRLSCAASGFTFHLYAMGWYRQAPRKERELVAAISQSGDSTYYADTVKGRFTISRDNAKNTFYLQMNSLKPEDTAVYYFNADNDCVVWTYPFDFDYWGQGTQVTVSS result="low polyreactivity"
sequence_string=QVQLVESGGGLVQAGGRLRLSCAASGFIFTEYAMGWYRQSPGKERELVAAINSGGRTKYADSVKGRFTISRDNAKNTVFLQMNSLKPEDTAVYYCAARRFPTYDYWGQGTQVTVSS result="high polyreactivity"
sequence_string=QVQLVESGGGLVQAGGSLRLSCAASGFIFSVNTMGSYRQAPGKERELVAAISGSGGSTYYADSVKGRFTISRDNAKNTVYLQMNSLKPEDTAVYYCAARYTVTYDYWGQGTQVTVSS result="high polyreactivity"

----------
# protocol-description: yeast display, Sf9 membrane polyspecificity reagent, FACS + sequencing; frameworks hold sequencing errors
test-readout: polyreactivity (PSR sort gate)

sequence_string=QVQLVESGGGLVQAGGSLRLSCAASGSTSRYNAMGWYRQAPGKERELVARINSGGTTNYADSVKGRFTISRDNAKNTVYLQMNSLKPEDTAVYYCNAYYYFWGQGTQVTVSS result="low polyreactivity"
sequence_string=QVQLVESGGGLVQAGGSLRLSCAASGSIFGWNAMGWYRQAPGKERELVAAISSGGSTYYADSVKGRFTISRDNAKNTVSLQMNSLKPEDTAVYYCNAYFQYYDYWGQGTQVTVSS result="low polyreactivity"

----------
# protocol-description: yeast display, Sf9 membrane polyspecificity reagent, FACS + sequencing; frameworks hold sequencing errors
test-readout: polyreactivity (PSR sort gate)

sequence_string=QVQLVESGGGLVQAGGSLRLSCAASGSIFSQYAMGSYRQAPGKERELVAAITSGGRTYYADSVKGRFTISRDNAKNTVYLQMNSLKPEDTAVYYCAASRRGGGLDYWGQGTKVTVSS test_readout="polyreactivity (PSR sort gate)" result="high polyreactivity"
sequence_string=QVQLVESGGGLVQAGGSLRLSCAASGRTFDWNAMGWYRQAPGKERELVAAITYSGGGTYYADSVKGRFTISRDNAKNTVYLQMNSLKPEDTAVYYCAAGYPGTWSYYYWGQGTQVTVSS test_readout="polyreactivity (PSR sort gate)" result="low polyreactivity"
sequence_string=QVQLVESGGGLVQAGGSLRLSCAASGRTLNAYAMGWYRQAPGKERELVAAITGDDGSTYYADSVKGRFTISRDNAKNTVYLQMNTLKPEDTAVYYCAAVTFSYDGYDYWGQGTQVTVSS test_readout="polyreactivity (PSR sort gate)" result="low polyreactivity"
sequence_string=QVQLVESGGGLVQAGGSLRLSCAASGITFSYYAMGWYRQAPGKERELVAAISRTGTSTYYADSVKGRFTISRDNAKNTVYLQMKSLKPEDTAVYDCAAVPRHPYHDKYDYWGQGTQVTVSS test_readout="polyreactivity (PSR sort gate)" result="high polyreactivity"
sequence_string=QVQLVESVGGLVQAGGSLLLSCAASGRTFTKYAMGWYRLAPGKEGELVAAISRSGTSTYYADSVKGRFTISRDNEKNTVYLQMNSLKPEDTAVYYCATVSAKYHSVHFGYWGQGTQVTVSS test_readout="polyreactivity (PSR sort gate)" result="high polyreactivity"

----------
# protocol-description: yeast display, Sf9 membrane polyspecificity reagent, FACS + sequencing; frameworks hold sequencing errors
test-readout: polyreactivity (PSR sort gate)

sequence_string=QVQLVESGGGLVQAGGSLRLICAASGRTFRLYAMGWYRQAPGKERELVAAITRGGRTNYADSVKGRFTISRDNAKNTVYLQMNSLKPEDTAVYYCAARYVERHTDYYYWGQGTQVTVSS result="low polyreactivity"
sequence_string=QVQLVESGGGLVQAGGRLRLSCAASGYTFKFNAMGWYRQAPGKETELVAGITRGGGTYADSVKGRFTISRDNAKNTVYLQMNSLKPDDTAVSYCASAWGAPSRFFSAFDYWGQGTQVTVSS result="low polyreactivity"
sequence_string=QVQLVESGGGLVQAGGSLRLSCAASGIIFYWYAMGWYRQAPGKERELVAAINSGGRTNYADSVKGRFTISRDNAKNTVYLQMNSLKPEDTAVYYCAARANPYVLKYYYWGQGTQVTVSS result="high polyreactivity"
sequence_string=QVQLVESGGGLVQAGGSLRLSCAASGSIFDDFAMGWYRQAPGKERELVAAISWSGGRTYYADSVKGRFTISRDNAKNTVYLHMNSLKPDDTAVYYCAATTGVRSRRYYYWGQGTQVTVSS result="low polyreactivity"
sequence_string=QVQLVESGGGLVQAGGSLRLSCAASGYIFYRNAMGWYRQAPGKEREFVAAISSSGVSTYYADSVKGRFTISRDTAKNTVYLQMNSLKPEDTAVYYCNTGYIFSSFYSSKYGYWGQGTQVTVSS result="low polyreactivity"
sequence_string=QVQLVESGGGLVQAGGSLRLSCAASGSTLGAYAMGWYRQAPGKERELVAAITYSTGSTYYADSVKGRFTISRDNAKNTVYLQMNSLKPEDTAVYYCAAATYQSRYFQRFDCWGQGTQVTVSS result="high polyreactivity"
sequence_string=QVQLVESGGGLVHAGGTLRLTCAASGFIFKRYTLGWYRQAPGQERELFATINRNGGNTYYADSVKGRFTISRDNAKNTVYLQMNILKPEDTSVYYCNARYWRAQGWPGYDYWGQGTQVTVSS result="high polyreactivity"
sequence_string=QVQLVESGGGLVQAGGSLRLSCAASGSIFYKYTMGWYRQAPGKERELVAAITRSGGSTYYADSVKGRFTISRDNAKNTVYLQMNSLKPEDTAVYYCAAERASFRYQDYYIYDYWGQGTQVTVSS result="high polyreactivity"
sequence_string=QVQLVESGGGLVQPGGSLRISCAASASTFFPYAMGWYRQAPGKERELVAAITGSGGSTYYADSVKGRFTISRDNAKNTVYLQMNSLKPEDTAVYYCNAVWEYYGKSDYWGQGTQVTVSS result="low polyreactivity"
sequence_string=QVQLVESGGGLVQAGGSLRLSCAASGSTFGYNGLGWYRQAPGKERELVAAISGGARTYADSVKGRFTISRDNAKNTVYLQMNSLKPEDTSVYYCAADSPVSVTADDGYWGQGTQVTVSS result="low polyreactivity"
sequence_string=QVQLLESGGGLVQAGGSLRLSCAASGLIFAYAMGWYRQAPGKERELVAVISWSGGSTYYADSVKGRFTISRDNAKNTVYLQKNSLKPEDTAVYYCAADYFGNWQLAGGYLGQGTQVTVSS result="low polyreactivity"

Reference source: the nanobody polyreactivity screen of Harvey et al. (2022)
